biological target: H5VN04 trimeric HA (recombinant hemagglutinin) (influenza A virus (H5VN04), UniProt Q6DQ33); assay: SPR
Assign koff to each entry below.

{"binder": "CR6261 scFv (wild type) (scFv, V domains shown) VH: EVQLVESGAEVKKPGSSVKVSCKASGGPFRSYAISWVRQAPGQGPEWMGGIIPIFGTTKYAPKFQGRVTITADDFAGTVYMELSSLRSEDTAMYYCAKHMGYQVRETMDVWGKGTTVTVSS VL: QSVLTQPPSVSAAPGQKVTISCSGSSSNIGNDYVSWYQQLPGTAPKLLIYDNNKRPSGIPDRFSGSKSGTSATLGITGLQTGDEANYYCATWDRRPTAYVVFGGGTKLTVL", "koff": "0.00012 s⁻¹"}
{"binder": "CR6261 Y98A scFv (scFv, V domains shown) VH: EVQLVESGAEVKKPGSSVKVSCKASGGPFRSYAISWVRQAPGQGPEWMGGIIPIFGTTKYAPKFQGRVTITADDFAGTVYMELSSLRSEDTAMYYCAKHMGAQVRETMDVWGKGTTVTVSS VL: QSVLTQPPSVSAAPGQKVTISCSGSSSNIGNDYVSWYQQLPGTAPKLLIYDNNKRPSGIPDRFSGSKSGTSATLGITGLQTGDEANYYCATWDRRPTAYVVFGGGTKLTVL", "koff": "0.027 s⁻¹"}

Let's switch to this binder now.
IN: Data request, read-out koff, for CR6261 F54A scFv (scFv, V domains shown) VH: EVQLVESGAEVKKPGSSVKVSCKASGGPFRSYAISWVRQAPGQGPEWMGGIIPIAGTTKYAPKFQGRVTITADDFAGTVYMELSSLRSEDTAMYYCAKHMGYQVRETMDVWGKGTTVTVSS VL: QSVLTQPPSVSAAPGQKVTISCSGSSSNIGNDYVSWYQQLPGTAPKLLIYDNNKRPSGIPDRFSGSKSGTSATLGITGLQTGDEANYYCATWDRRPTAYVVFGGGTKLTVL
OUT: 0.0073 s⁻¹
